Target: EGFR (d746-750) (Homo sapiens (Human), UniProt P00533, DEL746-750)
Sequence (P00533 other isoform, or with tags, fused parts or gaps del 1-694/del 746-750 limits assumed): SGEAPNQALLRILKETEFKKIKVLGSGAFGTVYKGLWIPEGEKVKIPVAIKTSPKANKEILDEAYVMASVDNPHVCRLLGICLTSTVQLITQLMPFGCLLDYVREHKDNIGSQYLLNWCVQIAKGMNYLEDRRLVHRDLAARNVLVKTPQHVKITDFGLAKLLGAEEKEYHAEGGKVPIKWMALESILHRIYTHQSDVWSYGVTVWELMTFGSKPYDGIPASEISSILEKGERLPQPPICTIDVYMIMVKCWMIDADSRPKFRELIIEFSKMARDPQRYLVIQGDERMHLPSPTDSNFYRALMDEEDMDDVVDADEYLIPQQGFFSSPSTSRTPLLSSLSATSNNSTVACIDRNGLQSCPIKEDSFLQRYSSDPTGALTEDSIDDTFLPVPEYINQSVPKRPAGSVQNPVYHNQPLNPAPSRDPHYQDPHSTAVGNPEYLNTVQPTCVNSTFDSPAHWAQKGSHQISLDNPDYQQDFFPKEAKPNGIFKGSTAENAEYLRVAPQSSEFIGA
Experiment: Biochemical EGFR inhibition assay, EGFR (d746-750)
Conditions: Caliper mobility shift; 1.0 mM ATP or ATP Km; read-out: Enz EGFR_Exon19-del746-750 IC50
pIC50: −log10 of the molar value. Where a name gives a salt, the structure may show the parent alone.
True means recorded pIC50 is 9 or above; False means it is below 9.

Below are worked cases with known answers.
| COMPOUND | ASSAY_TARGET | CATEGORY_LABEL |
| --- | --- | --- |
| Cn1cc(-c2ccc3c(-c4c[nH]nc4-c4cc(F)ccc4F)ncnc3c2)cn1 | EGFR (d746-750) (Homo sapiens (Human), UniProt P00533, DEL746-750) | True |
| Cc1nn(C)c(-c2ccccc2)c1-c1ncnc2cc(-c3cnn(C)c3)ccc12 | EGFR (d746-750) (Homo sapiens (Human), UniProt P00533, DEL746-750) | False |
| COc1cc2ncnc(-c3cn(C)nc3-c3ccccc3)c2cc1NC(=O)[C@@H]1CCN(C)C[C@H]1F [Example 284] | EGFR (d746-750) (Homo sapiens (Human), UniProt P00533, DEL746-750) | False |
| Cc1nnc([C@H](C)Oc2nc3c(-c4cn(C)nc4-c4ccccc4)ncnc3cc2OC2CC2)o1 (single isomer, unassigned) | EGFR (d746-750) (Homo sapiens (Human), UniProt P00533, DEL746-750) | False |
| COc1cc2ncnc(-c3cn(C)nc3-c3ccccc3)c2cc1NC(=O)C12CC(N(C)C)(C1)C2 [Example 341, trifluoroacetate] | EGFR (d746-750) (Homo sapiens (Human), UniProt P00533, DEL746-750) | False |

Then there is this compound:
Is the recorded value of pIC50 equal to or greater than 9 for this compound? [2H]C([2H])([2H])Oc1cc2ncnc(-c3cnn(C([2H])([2H])[2H])c3-c3ccccc3)c2nc1NC(=O)C1(C(F)(F)F)CC1
False

Origin of values: patent US20250236608A1
